Hey, just so you know, these numbers are from paper PMC6271714.

# test-target: Angiotensin-Converting Enzyme (ACE) (Homo sapiens)
# Construct: purchased Dojindo Laboratories ACE Kit-WST A502
# experiment-notes: ACE inhibition assay (Dojindo ACE Kit-WST A502)
# Format: biochemical
# condition-info: synthesized peptides, six concentrations 10 to 100 μg/mL; read-out: IC50 Values (μM), ACE inhibition capacity
Where a SMILES comes first, the peptide text is derived from it.
measurement-label: IC50 (µM)

{"columns": ["molecule", "IC50 / µM"],
 "data": [
  ["CC[C@H](C)[C@H](N)C(=O)N1CCC[C@H]1C(=O)N[C@H](C(=O)O)[C@@H](C)O [Ile-Pro-Thr] (H-Ile-Pro-Thr-OH)", 73.1],
  ["N[C@@H](CO)C(=O)N[C@@H](Cc1ccc(O)cc1)C(=O)O [Ser-Tyr] (H-Ser-Tyr-OH)", 94.7]
]}

a = CC[C@H](C)[C@H](N)C(=O)N[C@@H](CCCNC(=N)N)C(=O)O
b = CC[C@H](C)[C@H](NC(=O)[C@H](CO)NC(=O)[C@@H](N)CC(N)=O)C(=O)O [Asn-Ser-Ile] (H-Asn-Ser-Ile-OH)
Exam item: Endpoint returns whichever of a and b has the numerically higher IC50. Answer by stating the label of the chosen item.
Marked response: b

----------
# test-target: Angiotensin-Converting Enzyme (ACE) (Homo sapiens, UniProt P12821)
# Construct: purchased Dojindo Laboratories ACE Kit-WST A502
# Sequence (P12821 30-1306, species assumed): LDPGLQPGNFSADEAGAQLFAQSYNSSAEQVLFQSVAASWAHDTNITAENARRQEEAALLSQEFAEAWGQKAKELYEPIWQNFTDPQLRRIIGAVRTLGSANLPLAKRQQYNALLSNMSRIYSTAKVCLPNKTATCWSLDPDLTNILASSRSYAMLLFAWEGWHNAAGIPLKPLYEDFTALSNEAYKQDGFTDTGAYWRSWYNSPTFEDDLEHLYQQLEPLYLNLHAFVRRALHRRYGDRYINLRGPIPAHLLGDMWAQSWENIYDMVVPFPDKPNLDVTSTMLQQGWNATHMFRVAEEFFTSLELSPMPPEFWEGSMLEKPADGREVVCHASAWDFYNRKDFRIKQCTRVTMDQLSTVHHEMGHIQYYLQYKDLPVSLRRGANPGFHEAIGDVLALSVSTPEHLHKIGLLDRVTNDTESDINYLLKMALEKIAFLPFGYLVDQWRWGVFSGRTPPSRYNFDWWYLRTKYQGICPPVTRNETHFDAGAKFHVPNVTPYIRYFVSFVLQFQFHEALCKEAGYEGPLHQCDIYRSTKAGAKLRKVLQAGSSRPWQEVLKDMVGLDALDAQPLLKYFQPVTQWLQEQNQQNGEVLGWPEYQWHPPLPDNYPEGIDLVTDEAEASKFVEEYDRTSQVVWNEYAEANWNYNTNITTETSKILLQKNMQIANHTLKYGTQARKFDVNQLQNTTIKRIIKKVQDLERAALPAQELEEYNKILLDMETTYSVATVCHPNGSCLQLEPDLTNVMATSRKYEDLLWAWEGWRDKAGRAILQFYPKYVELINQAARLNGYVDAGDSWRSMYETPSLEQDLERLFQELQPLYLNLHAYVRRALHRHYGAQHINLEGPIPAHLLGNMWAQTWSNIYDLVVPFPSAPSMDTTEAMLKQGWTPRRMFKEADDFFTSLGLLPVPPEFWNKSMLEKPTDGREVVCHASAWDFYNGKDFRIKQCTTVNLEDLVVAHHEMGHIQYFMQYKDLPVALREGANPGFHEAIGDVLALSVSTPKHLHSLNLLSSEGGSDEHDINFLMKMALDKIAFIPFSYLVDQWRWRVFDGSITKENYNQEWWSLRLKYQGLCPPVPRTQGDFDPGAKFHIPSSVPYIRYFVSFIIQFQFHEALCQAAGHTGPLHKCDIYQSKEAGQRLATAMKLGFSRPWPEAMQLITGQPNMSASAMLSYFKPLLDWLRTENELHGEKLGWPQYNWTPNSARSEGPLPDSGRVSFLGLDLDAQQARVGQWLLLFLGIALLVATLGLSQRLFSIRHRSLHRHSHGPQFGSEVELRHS
# experiment-notes: ACE inhibition assay (Dojindo ACE Kit-WST A502)
# Type: biochemical
# condition-info: synthesized peptides, six concentrations 10 to 100 μg/mL; read-out: IC50 Values (μM), ACE inhibition capacity
Where a SMILES comes first, the peptide text is derived from it.
// values below are reported IC50

Entry under test: CC(C)C[C@H](NC(=O)[C@@H]1CCCN1C(=O)CN)C(=O)O [Gly-Pro-Leu] (H-Gly-Pro-Leu-OH) . Its IC50 was > 500 µM

// IC50 value for CC[C@H](C)[C@H](NC(=O)[C@@H](N)CO)C(=O)O [Ser-Ile] (H-Ser-Ile-OH) : > 200 µM

IC50 recorded for this compound, C[C@H](N)C(=O)N[C@@H](Cc1ccc(O)cc1)C(=O)O [Ala-Tyr] (H-Ala-Tyr-OH) , is 163 µM

CC(C)C[C@H](NC(=O)[C@H](C)N)C(=O)O [Ala-Leu] (H-Ala-Leu-OH) has a reported IC50 of > 200 µM

----------
# reported IC50; entries follow
# test-target: Angiotensin-Converting Enzyme (ACE) (Homo sapiens, UniProt P12821)
# Construct: purchased Dojindo Laboratories ACE Kit-WST A502
# experiment-notes: ACE inhibition assay (Dojindo ACE Kit-WST A502)
# Format: biochemical
# condition-info: synthesized peptides, six concentrations 10 to 100 μg/mL; read-out: IC50 Values (μM), ACE inhibition capacity
Where a SMILES comes first, the peptide text is derived from it.

// below: answered compounds
{"columns": ["compound", "test-target", "IC50"],
 "data": [
  ["CC(C)[C@H](NC(=O)[C@@H](N)CCCCN)C(=O)N1CCC[C@H]1C(=O)O [Lys-Val-Pro] (H-Lys-Val-Pro-OH)", "Angiotensin-Converting Enzyme (ACE) (Homo sapiens, UniProt P12821)", "> 500 µM"],
  ["CC(C)C[C@H](NC(=O)[C@@H](N)CO)C(=O)O [Ser-Leu] (H-Ser-Leu-OH; N-terminus and C-terminus assumed)", "Angiotensin-Converting Enzyme (ACE) (Homo sapiens, UniProt P12821)", "> 200 µM"]
]}

For the next question, use this compound.
Field IC50 (entry CC(C)C[C@H](NC(=O)[C@@H](N)[C@@H](C)O)C(=O)O [Thr-Leu] (H-Thr-Leu-OH) ) reads > 200 µM
